biological target: HRgpA-6H (Porphyromonas gingivalis) (UniProt P28784); experiment: ELISA, Fab FASEBA supernatant on coated HRgpA-6H (0.0625 ug/ml)
READOUT LABEL: Ratio OD(Variant)/OD(WT)
Answers are plain numbers.

Consider the following illustrative entries.
# BINDER, OBSERVED RESULT
data = [
    ("KB001 parental mouse Fab VH variant M104L (Fab, V domains shown) VH: EVQLKQSGPGLVAPSQSLSITCTVSGFSLSIYSVHWVRQPPGKGLEWLGMIWGGGSSDYNSALKSRLSISKDNSKSQVFLKMNSLQTDDTAMYYCARNGNFYALDYWGQGTSVTVSS VL: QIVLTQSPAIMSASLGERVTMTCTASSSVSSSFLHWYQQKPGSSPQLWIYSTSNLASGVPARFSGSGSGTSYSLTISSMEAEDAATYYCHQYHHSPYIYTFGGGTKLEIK", 0.904),
    ("KB001 parental mouse Fab VH variant S65T (Fab, V domains shown) VH: EVQLKQSGPGLVAPSQSLSITCTVSGFSLSIYSVHWVRQPPGKGLEWLGMIWGGGSSDYNSALKTRLSISKDNSKSQVFLKMNSLQTDDTAMYYCARNGNFYAMDYWGQGTSVTVSS VL: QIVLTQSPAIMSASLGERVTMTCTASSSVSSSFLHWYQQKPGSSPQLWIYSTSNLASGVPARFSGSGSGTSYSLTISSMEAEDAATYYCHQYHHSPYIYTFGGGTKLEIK", 0.918),
]

Please look at the following binder next.
Ask: Quick one: Ratio OD(Variant)/OD(WT) of KB001 parental mouse Fab VH variant S65P (Fab, V domains shown) VH: EVQLKQSGPGLVAPSQSLSITCTVSGFSLSIYSVHWVRQPPGKGLEWLGMIWGGGSSDYNSALKPRLSISKDNSKSQVFLKMNSLQTDDTAMYYCARNGNFYAMDYWGQGTSVTVSS VL: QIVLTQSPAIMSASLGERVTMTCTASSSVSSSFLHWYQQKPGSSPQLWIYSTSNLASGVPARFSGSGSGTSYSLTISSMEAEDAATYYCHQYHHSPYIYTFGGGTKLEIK ?
Result: 0.984
